As shown below, each of these molecules has a reported TGI value.
# Test system: CAKI-1 renal
# procedureDetails: NCI tumour cell line growth inhibition, 48 h
quantityKind: TGI

mol=C[N+](C)(CCCCCC[N+](C)(C)CCCN1C(=O)c2cccc3cccc(c23)C1=O)CCCN1C(=O)c2cccc3cccc(c23)C1=O experimentalsystem="CAKI-1 renal" result="> 100 µM"
mol=CCc1n[nH]c(=O)n1CCCCCCCCn1c(CC)n[nH]c1=O experimentalsystem="CAKI-1 renal" result="> 100 µM"
mol=CC1=NN=C(C)C1N=Nc1ccc2nc(C)[nH]c2c1 experimentalsystem="CAKI-1 renal" result="> 44.7 µM"
mol=O=c1[nH]nc(Cc2ccccc2)n1/N=C/c1cccs1 experimentalsystem="CAKI-1 renal" result="> 100 µM"
mol=O=C(O)C1=C/C(=C(/c2ccccc2)c2cc(C(=O)O)c(O)c3ccccc23)c2ccccc2C1=O experimentalsystem="CAKI-1 renal" result="> 100 µM"
